tested on: DAN-G (Pancreatic Carcinoma); assay: combination Emax (second highest fraction inhibited in the dose matrix, 72 h); higher = more inhibition; extreme values may be limits of the assay
Label Yes when combination Emax >= 0.3; otherwise No.

Please indicate if the recorded combination Emax for CN(C)CCCOc1ccc(-c2ccc3ncc4c(c3c2)n(C2CCOCC2)c(=O)n4C)cn1 [AZD0156] + C=CCn1c(=O)c2cnc(Nc3ccc(N4CCN(C)CC4)cc3)nc2n1-c1cccc(C(C)(C)O)n1 [AZD1775] (first compound max 1 µM, partner max 1 µM) meets or exceeds 0.3. Yes

Please indicate if the recorded combination Emax for CCN(CCO)CCCOc1ccc2c(Nc3cc(CC(=O)Nc4cccc(F)c4)[nH]n3)ncnc2c1 [AZD2811] + O=C(c1cc(Cc2n[nH]c(=O)c3ccccc23)ccc1F)N1CCN(C(=O)C2CC2)CC1 [Olaparib] (first compound max 1 µM, 7x7, partner max 10 µM) meets or exceeds 0.3. No

Please indicate if the recorded combination Emax for CN(CCO)CC[C@H](CSc1ccccc1)Nc1ccc(S(=O)(=O)NC(=O)c2ccc(N3CCC([C@@H](O)c4ccccc4-c4ccc(Cl)cc4)CC3)cc2)cc1S(=O)(=O)C(F)(F)F [AZD4320] + C=CCn1c(=O)c2cnc(Nc3ccc(N4CCN(C)CC4)cc3)nc2n1-c1cccc(C(C)(C)O)n1 [AZD1775] (first compound max 1 µM, partner max 1 µM) meets or exceeds 0.3. Yes

Please indicate if the recorded combination Emax for CC1(C)CCC(CN2CCN(c3ccc(C(=O)NS(=O)(=O)c4ccc(NCC5CCOCC5)c([N+](=O)[O-])c4)c(Oc4cnc5[nH]ccc5c4)c3)CC2)=C(c2ccc(Cl)cc2)C1 [Venetoclax] + C[C@@H]1COCCN1C2=NC(=NC(=C2)C3(CC3)[S@](=N)(=O)C)C4=C5C=CNC5=NC=C4 [AZD6738] (first compound max 1 µM, 7x7, partner max 10 µM) meets or exceeds 0.3. Yes

Please indicate if the recorded combination Emax for CC(=O)Nc1cccc(-n2c(=O)n(C3CC3)c(=O)c3c(Nc4ccc(I)cc4F)n(C)c(=O)c(C)c32)c1 [Trametinib] + Cc1nc(-c2cn3c(n2)-c2ccc(-c4cnn(C(C)(C)C(N)=O)c4)cc2OCC3)n(C(C)C)n1 [Taselisib] (first compound max 1 µM, 7x7, partner max 10 µM) meets or exceeds 0.3. Yes

Please indicate if the recorded combination Emax for COc1cc2ncnc(Nc3ccc(F)c(Cl)c3)c2cc1OCCCN1CCOCC1 [Gefitinib] + CC(C)n1c(=O)n(C)c2cnc3cc(F)c(-c4ccc(OCCCN5CCCCC5)nc4)cc3c21 [AZD1390] (first compound max 10 µM, 7x7, partner max 0.3 µM) meets or exceeds 0.3. No

Please indicate if the recorded combination Emax for COc1cccc(OCCCN)c1-c1cc(Nc2cnc(C#N)cn2)n[nH]1 [Prexasertib] + CN(C)CCCOc1ccc(-c2ccc3ncc4c(c3c2)n(C2CCOCC2)c(=O)n4C)cn1 [AZD0156] (first compound max 1 µM, 7x7, partner max 1 µM) meets or exceeds 0.3. Yes

Please indicate if the recorded combination Emax for CN(C)CCCOc1ccc(-c2ccc3ncc4c(c3c2)n(C2CCOCC2)c(=O)n4C)cn1 [AZD0156] + O=C(c1cc(Cc2n[nH]c(=O)c3ccccc23)ccc1F)N1CCN(C(=O)C2CC2)CC1 [Olaparib] (first compound max 3 µM, partner max 3 µM) meets or exceeds 0.3. Yes

Please indicate if the recorded combination Emax for CN(CCO)CC[C@H](CSc1ccccc1)Nc1ccc(S(=O)(=O)NC(=O)c2ccc(N3CCC([C@@H](O)c4ccccc4-c4ccc(Cl)cc4)CC3)cc2)cc1S(=O)(=O)C(F)(F)F [AZD4320] + Cn1cnc2c(F)c(Nc3ccc(Br)cc3Cl)c(C(=O)NOCCO)cc21 [Selumetinib] (first compound max 1 µM, 7x7, partner max 3 µM) meets or exceeds 0.3. Yes

Please indicate if the recorded combination Emax for CC1(C)CCC(CN2CCN(c3ccc(C(=O)NS(=O)(=O)c4ccc(NCC5CCOCC5)c([N+](=O)[O-])c4)c(Oc4cnc5[nH]ccc5c4)c3)CC2)=C(c2ccc(Cl)cc2)C1 [Venetoclax] + Cc1cc2ncnn2cc1Nc1ncc2c(n1)n(C1CCOCC1)c(=O)n2C [AZD7648] (first compound max 1 µM, 7x7, partner max 10 µM) meets or exceeds 0.3. Yes

Please indicate if the recorded combination Emax for Cc1c2c(nn1C)CSCc1cc(n(C)n1)CSc1cc(c3ccccc3c1)OCCCc1c(C(=O)O)n(C)c3c-2c(Cl)ccc13 [AZD5991] + CC1(C)CCC(CN2CCN(c3ccc(C(=O)NS(=O)(=O)c4ccc(NCC5CCOCC5)c([N+](=O)[O-])c4)c(Oc4cnc5[nH]ccc5c4)c3)CC2)=C(c2ccc(Cl)cc2)C1 [Venetoclax] (first compound max 1 µM, 7x7, partner max 1 µM) meets or exceeds 0.3. No

Please indicate if the recorded combination Emax for CC1(C)CCC(CN2CCN(c3ccc(C(=O)NS(=O)(=O)c4ccc(NCC5CCOCC5)c([N+](=O)[O-])c4)c(Oc4cnc5[nH]ccc5c4)c3)CC2)=C(c2ccc(Cl)cc2)C1 [Venetoclax] + Cn1cnc2c(F)c(Nc3ccc(Br)cc3Cl)c(C(=O)NOCCO)cc21 [Selumetinib] (first compound max 1 µM, 7x7, partner max 3 µM) meets or exceeds 0.3. No

Please indicate if the recorded combination Emax for CC1(C)CCC(CN2CCN(c3ccc(C(=O)NS(=O)(=O)c4ccc(NCC5CCOCC5)c([N+](=O)[O-])c4)c(Oc4cnc5[nH]ccc5c4)c3)CC2)=C(c2ccc(Cl)cc2)C1 [Venetoclax] + CN(C)CCCOc1ccc(-c2ccc3ncc4c(c3c2)n(C2CCOCC2)c(=O)n4C)cn1 [AZD0156] (first compound max 1 µM, 7x7, partner max 1 µM) meets or exceeds 0.3. No

Please indicate if the recorded combination Emax for Cc1cc2ncnn2cc1Nc1ncc2c(n1)n(C1CCOCC1)c(=O)n2C [AZD7648] + CCN(CCO)CCCOc1ccc2c(Nc3cc(CC(=O)Nc4cccc(F)c4)[nH]n3)ncnc2c1 [AZD2811] (first compound max 10 µM, 7x7, partner max 1 µM) meets or exceeds 0.3. Yes
